Source: patent US8613914B2

Molecular target: HCV NS3-4A serine protease (full-length NS3-4A protein) (Hepatitis C virus genotype 1a (isolate 1) (HCV))
Sequence (P26664 1027-1657): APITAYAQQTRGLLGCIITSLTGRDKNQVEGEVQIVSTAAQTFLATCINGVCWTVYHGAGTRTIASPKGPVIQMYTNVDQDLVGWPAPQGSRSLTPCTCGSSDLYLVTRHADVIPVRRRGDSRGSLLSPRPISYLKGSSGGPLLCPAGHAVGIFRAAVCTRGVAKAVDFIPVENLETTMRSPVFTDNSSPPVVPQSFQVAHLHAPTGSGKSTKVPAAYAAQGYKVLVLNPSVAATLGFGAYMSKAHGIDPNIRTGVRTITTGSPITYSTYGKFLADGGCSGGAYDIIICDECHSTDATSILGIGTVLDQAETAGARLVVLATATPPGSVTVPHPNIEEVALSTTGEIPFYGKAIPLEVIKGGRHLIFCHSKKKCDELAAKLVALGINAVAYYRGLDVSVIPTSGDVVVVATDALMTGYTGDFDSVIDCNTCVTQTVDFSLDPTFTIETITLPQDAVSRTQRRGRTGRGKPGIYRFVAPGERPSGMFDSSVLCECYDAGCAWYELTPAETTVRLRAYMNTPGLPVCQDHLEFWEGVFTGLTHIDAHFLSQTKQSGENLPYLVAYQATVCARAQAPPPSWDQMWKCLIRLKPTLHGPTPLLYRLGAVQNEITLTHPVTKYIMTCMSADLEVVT
Sequence (P26664 1658-1711 partner): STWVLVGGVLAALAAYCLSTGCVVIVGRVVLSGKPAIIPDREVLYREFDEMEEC
Experiment: HCV NS3-4A protease assay
Details: strain HCV-1, fluorogenic peptide substrate, read-out: Protease assay Ex. 12 IC50
Grouping by measured IC50 is done with the following cut points: bottom end (below 3 nM), midrange (3 nM to below 20 nM), top end (20 nM or more)

CHEMICAL SMILES	CAT
C=C[C@@H]1C[C@]1(NC(=O)[C@@H]1C[C@@]2(CN1C(=O)[C@@H](NC(=O)[C@@H](NC(=O)[C@@H]1CCCCN1C(C)C)C1CCCCC1)C1CCCC1)C(C)(C)C21CCC1)C(=O)NS(=O)(=O)N1CCCC1	midrange

Challenge: State the band of C=C[C@@H]1C[C@]1(NC(=O)[C@@H]1C[C@@]2(CN1C(=O)[C@@H](NC(=O)[C@@H](NC(=O)[C@@H]1CCCCN1C(C)C)C1CCCCC1)C(C)C)C(C)(C)C21CCC1)C(=O)NS(=O)(=O)N(CC)CC
Response given: bottom end

Challenge: State the band of C=C[C@@H]1C[C@]1(NC(=O)[C@@H]1C[C@@]2(CN1C(=O)[C@@H](NC(=O)[C@@H](NC(=O)[C@@H]1CCCCN1C(C)C)C1CCCC1)C(C)(C)C)C(C)(C)C21CCC1)C(=O)NS(=O)(=O)N1CCCC1
Response given: midrange

Challenge: State the band of C=C[C@@H]1C[C@]1(NC(=O)[C@@H]1C[C@@]2(CN1C(=O)[C@@H](NC(=O)[C@@H](NC(=O)c1c[nH]c3ccccc13)C1CCCCC1)C(C)(C)C)C(C)(C)C21CCC1)C(=O)NS(=O)(=O)N1CCCC1
Response given: top end

Challenge: State the band of C=C[C@@H]1C[C@]1(NC(=O)[C@@H]1C[C@@]2(CN1C(=O)[C@@H](NC(=O)[C@@H](NC(=O)[C@H]1CCN1C(C)C)C(C)(C)C)C(C)(C)C)C(C)(C)C21CCC1)C(=O)NS(=O)(=O)N1CCCC1
Response given: top end
